Data provenance is patent US8476197B2.

- experimental parameters: pH 2.7
Marks after values point to notes of the source that are not given here.
Log P values by entry

Asked: # lookup: Log P of CCOC(=O)C(C#N)=C(NC(C)CC(F)(F)F)c1cccnc1Cl (stereo not drawn)
Given back: 2.92^[a]

Asked: Thanks! And CCOC(=O)C(C#N)=C(NC(C)(C)CSC)c1sc(C)nc1C(F)(F)F ?
Given back: 3.62^[a]

---

- experimental parameters: pH 2.3
Log P values by entry
Keep the answer to the number alone.

1) CCOC(=O)C(C#N)=C(NC1CC2CCC1C2)c1cccnc1Cl (stereo not drawn) ... 3.59
2) CSc1ccccc1NC(=C(C#N)C(=O)OCC(C)C)c1cccnc1Cl ... 4.15
3) CCOC(=O)C(C#N)=C(NC(C)C(C)C)c1cccnc1-c1ccc(C(F)(F)F)cc1 (stereo not drawn) ... 4.23
4) CCOC(=O)C(C#N)=C(Nc1ccccc1SC)c1ccc(Cl)nc1Cl ... 3.97
5) COC(=O)C(C#N)=C(NCC1CCCS1)c1cccnc1Cl (stereo not drawn) ... 2.63

Then this compound:
Asked: # lookup: Log P of CCOC(=O)C(C#N)=C(NC(C)C(C)C)c1cccnc1Br (stereo not drawn)
Given back: 3.27
